molecular target: Fructose-bisphosphate aldolase (Mycobacterium tuberculosis (strain ATCC 25618 / H37Rv)) (UniProt P9WQA3); test: Mtb FBA enzyme inhibitors, primary screen, biochemical, fluorescence, strain H37Rv (AID 588726); details: purified M. tuberculosis FBA, fluorescence read-out, at 1 µM
Sequence (P9WQA3 whole entry, looked up): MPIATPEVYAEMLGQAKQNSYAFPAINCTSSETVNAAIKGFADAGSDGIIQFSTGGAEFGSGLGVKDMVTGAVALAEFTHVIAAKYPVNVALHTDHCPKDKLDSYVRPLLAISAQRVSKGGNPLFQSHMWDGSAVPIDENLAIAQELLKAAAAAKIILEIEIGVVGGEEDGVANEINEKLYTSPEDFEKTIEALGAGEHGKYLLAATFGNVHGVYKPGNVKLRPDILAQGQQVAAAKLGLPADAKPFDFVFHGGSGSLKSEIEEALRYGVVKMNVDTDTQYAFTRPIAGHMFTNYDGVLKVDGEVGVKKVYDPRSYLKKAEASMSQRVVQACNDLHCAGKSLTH
Screen size: about 360,000 compounds; about 8,200 (2.3%) were called active. No stated cut-off is given here; in the data, active means inhibition above about 27%; inactive means the rest. The sample as a whole holds a higher share of actives than the screen did.
Respond using exactly one of the listed classes: active, inactive

Look over these answered cases.
{"columns": ["molecule", "qualitative_label"],
 "data": [
  ["Cc1nccn1-c1ccc(NC(=O)[C@H]2O[C@@H](n3cnc4c(N)ncnc43)[C@H](O)[C@@H]2O)cc1", "inactive"],
  ["Cc1ccccc1N1CC(c2nc3ccccc3[nH]2)CC1=O (centres undefined)", "inactive"],
  ["OC(c1ccc(Cl)c(F)c1)c1ncc(-c2ccccc2Cl)[nH]1 (centres undefined)", "inactive"],
  ["O=C(Nc1ccc2nccnc2c1)c1ccco1", "active"],
  ["CN(CCOc1ccccc1)Cc1nc2cc(Cl)ccc2c(=O)[nH]1", "inactive"],
  ["COc1cccc(NC(=O)COc2cc(C)cc3oc(=O)cc(C)c23)c1", "inactive"],
  ["COc1ccc(-c2cc3ccc(OCc4nn[nH]n4)cc3oc2=O)cc1", "active"],
  ["CCNC(=O)c1cccc(NC(=O)C2CC(=O)N(CCc3ccccc3)C2)c1 (centres undefined)", "inactive"]
]}

*Q* Field: outcome | Entry: Cc1cc(C)c(NC(=S)N2CCCC2C(=O)O)c(C)c1 (centres undefined)
*A* inactive

*Q* Dear colleague, could you share the recorded outcome for CSCC(=O)N1CCCC(C(=O)c2cc(F)ccc2F)C1 (centres undefined) when you have a moment?
*A* inactive

These measurements were taken from PubChem BioAssay AID588726.
